# Test system: NCI-H292 lung cancer cells
# ASSAY NAME: FDA drug screening, complete media vs cholesterol-free media with simvastatin (TABLE 2)
# Format: cell-based, human
# SETUP CONDITIONS: NCI-H292 cells, drug in complete media
// assign Y if Complete Media falls strictly below 1, else N (ties count as N)

Worked set:
>  <MOLECULE>
CC1(C)O[C@@H]2C[C@H]3[C@@H]4C[C@H](F)C5=CC(=O)C=C[C@]5(C)[C@@]4(F)[C@@H](O)C[C@]3(C)[C@]2(C(=O)CO)O1 [Fluocinolone (Acetonide)]

>  <CATEGORY>
Y

$$$$
>  <MOLECULE>
C[C@H]1[C@H](NC(=O)/C(=N\OC(C)(C)C(=O)O)c2csc(N)n2)C(=O)N1S(=O)(=O)O [Aztreonam]

>  <CATEGORY>
N

$$$$
>  <MOLECULE>
C[N+]1(C)[C@@H]2CC[C@H]1C[C@@H](OC(=O)C(CO)c1ccccc1)C2 (stereo partly drawn) [Atropine methyl bromide]

>  <CATEGORY>
Y

$$$$
>  <MOLECULE>
C[C@]12CC[C@@H]3c4ccc(OC(=O)c5ccccc5)cc4CC[C@H]3[C@@H]1CC[C@@H]2O [Estradiol benzoate]

>  <CATEGORY>
N

$$$$

[in] In the record for CCO.C[C@H]1c2cccc(O)c2C(O)=C2C(=O)[C@]3(O)C(O)=C(C(N)=O)C(=O)[C@@H](N(C)C)[C@@H]3[C@@H](O)[C@@H]21.C[C@H]1c2cccc(O)c2C(O)=C2C(=O)[C@]3(O)C(O)=C(C(N)=O)C(=O)[C@@H](N(C)C)[C@@H]3[C@@H](O)[C@@H]21.Cl.Cl.O [Doxycycline (hyclate)] , is Complete Media less than 1?
[out] Y

====

Reported Complete Media values for the following compounds.
# Test system: NCI-H292 lung cancer cells
# ASSAY NAME: FDA drug screening, complete media vs cholesterol-free media with simvastatin (TABLE 2)
# Assay type: cell-based, human
# SETUP CONDITIONS: NCI-H292 cells, FDA drug library screen, complete media
Counter-ions that a name gives are not always drawn.
No unit in the answer, only the number.

Here's what some known entries look like.
>  <COMPOUND>
COC(=O)C1=C(C)NC(C)=C(C(=O)OC)C1c1ccccc1[N+](=O)[O-]

>  <ASSAY READOUT>
Complete Media

>  <RECORDED MEASUREMENT>
1.696

$$$$
>  <COMPOUND>
NCCC(O)(P(=O)([O-])O)P(=O)([O-])O.O.O.O.O.O.[Na+].[Na+] [Pamidronate (disodium pentahydrate)]

>  <ASSAY READOUT>
Complete Media

>  <RECORDED MEASUREMENT>
1.009

$$$$
>  <COMPOUND>
COc1ccccc1OCC(O)CN1CCN(CC(=O)Nc2c(C)cccc2C)CC1 (centres unmarked)

>  <ASSAY READOUT>
Complete Media

>  <RECORDED MEASUREMENT>
1.162

$$$$
>  <COMPOUND>
C=CC(=O)Nc1cccc(Oc2nc(Nc3ccc(N4CCN(C)CC4)cc3)nc3ccsc23)c1

>  <ASSAY READOUT>
Complete Media

>  <RECORDED MEASUREMENT>
0.4482

$$$$
>  <COMPOUND>
O=NN(CCCl)C(=O)NCCCl

>  <ASSAY READOUT>
Complete Media

>  <RECORDED MEASUREMENT>
1.247

$$$$
>  <COMPOUND>
CC(=O)Oc1cc(C(F)(F)F)ccc1C(=O)O

>  <ASSAY READOUT>
Complete Media

>  <RECORDED MEASUREMENT>
1.083

$$$$
>  <COMPOUND>
O=S(=O)(c1cccc2cnccc12)N1CCCNCC1 [Fasudil (Hydrochloride)]

>  <ASSAY READOUT>
Complete Media

>  <RECORDED MEASUREMENT>
1.233

$$$$
>  <COMPOUND>
CN(C(=O)CN(CCO)CC(=O)N(C)C(C)(C)Cc1ccccc1)C(C)(C)Cc1ccccc1

>  <ASSAY READOUT>
Complete Media

>  <RECORDED MEASUREMENT>
0.9874

$$$$
>  <COMPOUND>
COP(=S)(OC)Oc1ccc([N+](=O)[O-])c(C)c1

>  <ASSAY READOUT>
Complete Media

>  <RECORDED MEASUREMENT>
1.426

$$$$
>  <COMPOUND>
Cc1onc(-c2c(Cl)cccc2Cl)c1C(=O)N[C@@H]1C(=O)N2[C@@H]1SC(C)(C)[C@@H]2C(=O)O [Dicloxacillin (Sodium hydrate)]

>  <ASSAY READOUT>
Complete Media

>  <RECORDED MEASUREMENT>
1.008

$$$$

[in] State Complete Media on NCI-H292 lung cancer cells. Entry: CCCNC(C)C(=O)Nc1c(C)csc1C(=O)OC (centres unmarked) [Articaine (hydrochloride)]
[out] 0.8247

[in] State Complete Media on NCI-H292 lung cancer cells. Entry: COc1ccc(Cl)cc1C(=O)NCCc1ccc(S(=O)(=O)NC(=O)NC2CCCCC2)cc1 [Glibenclamide]
[out] 0.9567

[in] State Complete Media on NCI-H292 lung cancer cells. Entry: C[C@@H](c1nc(-c2ccc(C#N)cc2)cs1)[C@](O)(Cn1cncn1)c1cc(F)ccc1F [isavuconazole, reference compound]
[out] 0.9256

[in] State Complete Media on NCI-H292 lung cancer cells. Entry: CC(C)NCC(O)c1ccc(O)c(O)c1 (centres unmarked) [Isoprenaline (hydrochloride)]
[out] 1.355

[in] State Complete Media on NCI-H292 lung cancer cells. Entry: Cc1ncc(CSSCc2cnc(C)c(O)c2CO)c(CO)c1O [Pyrithioxin (dihydrochloride)]
[out] 1.11

[in] State Complete Media on NCI-H292 lung cancer cells. Entry: `O=C1CCCC(=O)C1C(=O)c1ccc(C(F)(F)F)cc1[N+](=O)[O-]`
[out] 1.188

[in] State Complete Media on NCI-H292 lung cancer cells. Entry: `O=C1O[C@H]([C@@H](O)CO)C(O)=C1O`
[out] 1.003

====

# Test system: NCI-H292 lung cancer cells
# ASSAY NAME: FDA drug screening, complete media vs cholesterol-free media without statin (TABLE 1)
# Type: cell-based, human
# SETUP CONDITIONS: Complete minus Cholesterol-free; greater than 0 enhanced anti-cancer activity, about 0 neutral, below 0 antagonists
Where a name gives a salt, the structure may show the parent alone.
# class assignment by measured Difference: low value = under -0.7, medium value = from -0.7 up to -0.6, high value = -0.6 and over

[in] Category of CCCN1CC(c2ccc(S(C)(=O)=O)cc2)=C(c2ccc(C)cc2)C1=O [Imrecoxib] , please.
[out] high value

[in] Category of CN(C(=O)CN(CCO)CC(=O)N(C)C(C)(C)Cc1ccccc1)C(C)(C)Cc1ccccc1 [Oxethazaine] , please.
[out] low value

[in] Category of Cc1nnc(SCC2=C(C(=O)[O-])N3C(=O)[C@@H](NC(=O)Cn4cnnn4)[C@H]3SC2)s1.[Na+] [Cefazolin (sodium)] , please.
[out] low value

[in] Category of CCn1cc(C(=O)O)c(=O)c2cc(F)c(N3CCNCC3)nc21 [Enoxacin (hydrate)] , please.
[out] high value

[in] Category of CC(Oc1c(Cl)cccc1Cl)C1=NCCN1 (centres unmarked) [Lofexidine (hydrochloride)] , please.
[out] high value

[in] Category of CC(=O)N[C@@H](CS)C(=O)O [Acetylcysteine] , please.
[out] medium value

[in] Category of CCOc1ccc2ccccc2c1C(=O)N[C@@H]1C(=O)N2[C@@H]1SC(C)(C)[C@@H]2C(=O)O [Nafcillin (sodium monohydrate)] , please.
[out] low value

====

# System: NCI-H292 lung cancer cells
# ASSAY NAME: FDA drug screening, complete media vs cholesterol-free media with simvastatin (TABLE 2)
# Assay type: cell-based, human
# SETUP CONDITIONS: complete media vs cholesterol-free media + simvastatin (0.04 μM); >0 enhanced anti-cancer activity, about 0 neutral, <0 antagonist
ASSAY READOUT: Difference
No unit in the answer, only the number.

Here's what some known entries look like.
>  <COMPOUND>
COc1ccc2c(O[C@@H]3C[C@H]4C(=O)N[C@]5(C(=O)NS(=O)(=O)C6CC6)C[C@H]5/C=C\CCCCN(C)C(=O)[C@@H]4C3)cc(-c3nc(C(C)C)cs3)nc2c1C [Simeprevir]

>  <Difference>
−0.09

$$$$
>  <COMPOUND>
Nc1ncnc2c1ncn2[C@@H]1O[C@H](CO)[C@@H](O)[C@@H]1O [Vidarabine]

>  <Difference>
−0.18

$$$$
>  <COMPOUND>
CCN(CC)C(=O)c1ccc(O)c(OC)c1 [Etamivan]

>  <Difference>
−0.31

$$$$
>  <COMPOUND>
N#C[C@@H]1CCCN1C(=O)CNC12CC3CC(CC(O)(C3)C1)C2 [Vildagliptin]

>  <Difference>
−0.12

$$$$

[in] For the compound CC(=O)Nc1cccc(-n2c(=O)n(C3CC3)c(=O)c3c(Nc4ccc(I)cc4F)n(C)c(=O)c(C)c32)c1 [Trametinib (DMSO solvate)] , report Difference.
[out] −0.11

[in] For the compound O=c1ccn([C@@H]2O[C@H](CO)[C@@H](O)[C@H]2O)c(=O)[nH]1 [Uridine] , report Difference.
[out] −0.29

[in] For the compound CCC(C)n1ncn(-c2ccc(N3CCN(c4ccc(OCC5COC(Cn6cncn6)(c6ccc(Cl)cc6Cl)O5)cc4)CC3)cc2)c1=O (stereo not drawn) [Itraconazole] , report Difference.
[out] −0.14

[in] For the compound C[C@@H]1C/C=C/C=C/C=C/C=C/[C@H](O[C@@H]2O[C@H](C)[C@@H](O)[C@H](N)[C@@H]2O)C[C@@H]2O[C@](O)(C[C@@H](O)C[C@H]3O[C@@H]3/C=C/C(=O)O1)C[C@H](O)[C@H]2C(=O)O [Natamycin] , report Difference.
[out] −0.09

[in] For the compound C[N+](C)(C)CCOP(=O)([O-])OC[C@H](O)CO [sn-Glycero-3-phosphocholine] , report Difference.
[out] −0.36

[in] For the compound Cc1cc(=O)[nH]c(=S)[nH]1 [Methylthiouracil] , report Difference.
[out] −0.21

[in] For the compound CC(C)Oc1ccc(-c2nc(-c3cccc4c3CC[C@@H]4NCCO)no2)cc1C#N [Ozanimod] , report Difference.
[out] −0.17
